Assay: Membrane permeability assessed as passive transport after 4 hrs by PAMPA
Where a SMILES comes first, the peptide text is derived from it. [ ]: non-standard residue; d: D form. Tpi = O=C(O)[C@@H]1Cc2c([nH]c3ccccc23)CN1; NMeF = CN[C@@H](Cc1ccccc1)C(=O)O; NMePhg = CN[C@H](C(=O)O)c1ccccc1

molecule	result units	permeability
CC(=O)N1Cc2[nH]c3ccccc3c2C[C@H]1C(=O)N(C)[C@@H](Cc1ccccc1)C(=O)N(C)[C@@H](Cc1ccccc1)C(=O)N(C)[C@@H](Cc1ccccc1)C(N)=O (Ac-[Tpi][NMeF][NMeF][NMeF]-NH2)	%	3.2
CN(C(=O)[C@@H]1Cc2c([nH]c3ccccc23)CN1)[C@@H](Cc1ccccc1)C(=O)N(C)[C@@H](Cc1ccccc1)C(=O)N(C)[C@@H](Cc1ccccc1)C(N)=O (H-[Tpi][NMeF][NMeF][NMeF]-NH2)	%	1.3
CC(=O)N(C)[C@H](C(=O)N(C)[C@@H](Cc1ccccc1)C(=O)N(C)[C@@H](Cc1ccccc1)C(=O)N(C)[C@@H](Cc1ccccc1)C(N)=O)c1ccccc1 (Ac-[NMePhg][NMeF][NMeF][NMeF]-NH2)	%	1.5
NCCc1ccc(O)c(O)c1 [DOPAMINE]	%	0
NC(=O)N1c2ccccc2C=Cc2ccccc21 [CARBAMAZEPINE]	%	16.8
CC(=O)N[C@@H](Cc1c[nH]c2ccccc12)C(=O)N(C)[C@@H](Cc1ccccc1)C(=O)N(C)[C@@H](Cc1ccccc1)C(=O)N(C)[C@@H](Cc1ccccc1)C(N)=O (Ac-W[NMeF][NMeF][NMeF]-NH2)	%	3.9

The measured values listed here are drawn from ChEMBL document CHEMBL1156575.
